Reported TGI values for the following compounds.
Tested on: T-47D breast
Assay notes: NCI tumour cell line growth inhibition, 48 h

Solved cases below.
>>> recorded_result("CC(C)=CCC[C@@H](C)C1=C(O)C(c2c(I)c(=O)n(C)c(=O)n2C)=C(C)C(=O)C1=O")
"> 100 µM"
>>> recorded_result("COc1cc(-n2cncc2-c2ccc3ccccc3c2)cc(OC)c1OC")
"> 100 µM"
>>> recorded_result("CC#Cc1nc2ccccc2c(=O)[nH]1")
"23 µM"
>>> recorded_result("O=C(Nc1cccc(C(F)(F)F)c1)C(=O)C(C(=O)c1ccc2ccccc2c1)C1OC(=O)c2ccccc21 (configuration not stated)")
"84.8 µM"
>>> recorded_result("C/C(=N\\NC(=S)NCCNC(=S)N/N=C(\\C)c1ccccn1)c1ccccn1")
"> 29.3 µM"
>>> recorded_result("CC[C@]12C=CCN3CC[C@]4(C(=C(C(=O)OC)C1)Nc1cc(OC)c(OC(C)=O)cc14)[C@@H]32")
"17.8 µM"

Please turn your attention to the following entry.
Query: Consider the compound `COc1ccc2c(CCC(c3ccccc3)c3ccccc3)c3[n+](cc2c1OC)CCc1cc2c(cc1-3)OCO2` and give its measured TGI.
Result: 1.76 µM
